Assay: NCI Yeast Anticancer Drug Screen. Data for the sgs1 mgt1 strain (AID 161);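 further: 0% = growth of cultures given vehicle only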
Details: S. cerevisiae sgs1 mgt1 strain, at 50.0 µM (retest, dose inferred, filed as 5.0)
The panel holds about 79,000 compounds, 15% with a hit somewhere; the sample as a whole holds those more often. Calls of active or inactive are those of the source. No stated cut-off is given here; in the data, active means growth inhibition above about 70%; inactive means the rest.
Respond with a class label; see true (1) for active, false (0) for inactive

Observe how each entry below is paired with its result.
> print(dat)
                                   compound  discrete.label
1  COC1/C=C\C=C(/C)C(=O)Nc2cc3nc4cc(Br)ccc4oc-3c(c2=O)CC(C)CC(OC)C(O)C(C)/C=C(\C)C1OC(N)=O (configuration not stated)        true (1)
2  CC1=C(C(=O)Nc2ccccc2)C(c2cccc3ccccc23)C(C(=O)Nc2ccccc2)=C(C)N1       false (0)
3                    CC1=C(C)C1[N+](=O)[O-]        true (1)
4  O=C1C(Cl)=C(NCCC2CCCN3CCCCC23)C(=O)c2ccccc21 (configuration not stated)       false (0)
5                Cc1ccc(NC(=O)CSC(N)=O)cc1C       false (0)

We now examine a further compound.
Hi team, can someone confirm the assay call for CCCCCCC(/C=C/c1ccccc1)=N\O ? true (1)

----------
Test: NCI Yeast Anticancer Drug Screen. Data for the rad50 strain (AID 155);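 further: 0% = growth of vehicle-only cultures of the same strain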
Details: S. cerevisiae rad50 strain growth inhibition; at 50.0 µM (retest, dose inferred, filed as 5.0); hits give high values
The panel holds about 79,000 compounds, 15% with a hit somewhere; the sample as a whole holds those more often.
Label scheme for growth inhibition: range 1 = under 50%, range 2 = from 50% up to 90%, range 3 = 90% and over

Observe how each entry below is paired with its result.
> print(dat)
                                   compound  discrete.label
1  CC(=O)OCC1OC(OC2C=C(O[Si](C)(C)C)C[C@H]3C(=O)C=CC(=O)[C@@H]23)C(OC(C)=O)C(OC(C)=O)C1OC(C)=O (stereo partly specified)         range 3
2                          NNc1ccc2ccccc2n1         range 3
3                Cc1ccc(N2C(=O)CSC2=S)cc1Br         range 1
4                 Cc1cccc(Cc2cccc(Cl)c2)c1O         range 3
5                 CCCCNc1ncc(OCC)c(NCCCC)n1         range 1
6  O=[N+]([O-])C(=C(Nc1ccccc1)Nc1ccccc1)C(Cl)=C(Cl)Cl         range 3
7  O=C1/C(=C\c2ccc(Cl)cc2)SC2SC=C(c3ccc([N+](=O)[O-])cc3)N12 (stereo unspecified)         range 2
8       O=C1NC(=O)C(Cc2ccccc2)(Cc2ccccc2)S1         range 3

Assign a bin to COc1cc2c(c(C)c1O)[C@H]1COc3ccccc3[C@H]1O2 range 1

Ok, now O=C1/C(=C(/Br)I)c2ccccc2-c2ccccc21 range 2

Ok, now O=C1c2ccc(O)cc2C(=O)c2c1ccc(O)c2O range 3

Ok, now N#CN1CCCC(O)c2sc3ccccc3c2CC1 (stereo unspecified) range 1

Ok, now CCOc1ccc2c(c1)[n+]([O-])c(-c1ccc([N+](=O)[O-])cc1)c(N)[n+]2[O-] range 2

Ok, now CC(=O)Oc1ccc(-c2ccccc2)cc1Br range 3

Ok, now CSc1nc(N)c2cnn(C3OC(CO)C(O)C3O)c2n1 (stereo unspecified) range 1

Ok, now Cn1c(=O)c2c(nc(OCC(C)(C)C)n2C)n(C)c1=O range 1

Ok, now CC(C)(C)[Si](C)(C)OCC1OC(n2cnc3c(NC(=O)c4ccccc4)ncnc32)CC1O (stereo unspecified) range 1

Ok, now CC(=O)C1CCC2C1(C)CC1OC13C21C=CC2(CC(O)CCC23C)C2C(=O)OC(=O)C21 (stereo unspecified) range 3

Ok, now Cc1ccc[n+](CC(=O)C2CCC3C4CC=C5CC(O)CCC5(C)C4CCC23C)c1 (stereo unspecified) range 1

Ok, now Cc1ccc(NC(=O)CSC(N)=O)cc1C range 1

----------
Assay: NCI Yeast Anticancer Drug Screen. Data for the cln2 rad14 strain (AID 165);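 further: 0% = growth equal to vehicle treated cultures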
Details: S. cerevisiae cln2 rad14 strain, at 50.0 µM (retest, dose inferred, filed as 5.0)
This is part of a sample that, as a whole, favours compounds with a hit. Of some 79,000 tested, about 15% had one in any assay. Calls of active or inactive are those of the source. Cut-off read from the data, not from the text of the source: active = growth inhibition above about 70%; inactive = the rest.
Respond with a class label; see active, inactive

Observe how each entry below is paired with its result.
> print(dat)
                                   compound  discrete.label
1  COC(=O)NNc1c([N+](=O)[O-])cnn(-c2ccccc2)c1=O        inactive
2        Cn1c(=O)ccc2cc(C(=O)c3ccccc3)ccc21        inactive
3  C/C=C/c1cc2c(cc1O)CC[C@@H]1[C@@H]2CC[C@]2(C)[C@@H](O)CC[C@@H]12          active

Hi team, can someone confirm the assay call for O=C(O)c1ccccc1C(c1ccccc1)c1ccccc1 ? active

Ok, now COC1(OC)C2(Cl)C(Cl)=C(Cl)C1(Cl)C1C2C2CC1(C(=O)O)c1ccccc12 (stereo unspecified) inactive

Ok, now Oc1cc(Cc2ccccc2)c(Cc2ccccc2)cc1O active

----------
Assay: NCI Yeast Anticancer Drug Screen. Data for the bub3 strain (AID 167)
Details: S. cerevisiae bub3 mutant strain, at 5.0 µM (retest, dose inferred, filed as 0.5), hits give high values
This is part of a sample that, as a whole, favours compounds with a hit. Of some 79,000 tested, about 15% had one in any assay.
property_measured: growth inhibition (%)
Give just the number in %; leave the unit off.

Please review the entries below; each comes with its answer.
> print(dat)
                                   compound  property.measured  quantitative.readout
1     Cc1ccc(SCc2nc3ccccc3c(C)[n+]2[O-])cc1  growth inhibition                    -4
2             C1CNC(CCNCCSCCNCCC2=NCCN2)=N1  growth inhibition                    -2
3  COc1ccc(OC)c(NC(=O)CCCC(=O)CC(=O)c2cccnc2)c1  growth inhibition                    57
4  C/C=C/C/C=C/CCC(=O)C1OC1C(N)=O (stereo unspecified)  growth inhibition                    99
5  CC12CCC3C(CCC4CC(O)CCC43C)C1CC=CO2 (stereo unspecified)  growth inhibition                    45

For the compound CC1=CC(=O)c2c(O)c3c(c(O)c2C1=O)C1C(O)C(C3=O)C23C(=O)c4c(O)c(C)cc(O)c4C(O)=C2C(=O)CC(O)C13 (stereo unspecified) , what growth inhibition is on record? 12

Ok, now N#CSCCl -4

Ok, now CCCCCCCCCCCCCCCC1C(N)C(=O)N(C)N1C (stereo unspecified) -51

----------
Test: NCI Yeast Anticancer Drug Screen. Data for the mlh1 rad18 strain (AID 175)
Conditions: S. cerevisiae mlh1 rad18 strain growth inhibition; at 5.0 µM (retest, dose inferred, filed as 0.5); hits give high values
Description: Growth inhibition of yeast strains with defined genetic alterations is measured as a screen for potential anti-cancer activity. Selected strains with alterations in DNA damage repair or cell cycle control were exposed to compounds and growth inhibition was measured relative to vehicle treated controls. The strain used in this assay is mlh1 rad18
The panel holds about 79,000 compounds, 15% with a hit somewhere; the sample as a whole holds those more often.
property_measured: growth inhibition (%)
Give just the number in %; leave the unit off.

Please review the entries below; each comes with its answer.
> print(dat)
                                   compound  quantitative.readout
1  O=[N+]([O-])c1ccc(C(Nc2ccccc2)c2ccc3cccnc3c2O)cc1 (configuration not stated)                     4
2                   C1CCC(CCNCCC2CCCCC2)CC1                     8

For the compound NC(=O)C1CCCN1C(=O)C1CCCN(Cc2ccc(CN3CCCC(C(=O)N4CCCC4C(N)=O)C3)cc2)C1 (configuration not stated) , what growth inhibition is on record? -10

Ok, now CC(/C=C/NNC1=NC(c2ccccc2)C(c2ccccc2)=NN1)Sc1ccccc1N (configuration not stated) 17

----------
Recorded growth inhibition for the following compounds
Assay: NCI Yeast Anticancer Drug Screen. Data for the bub3 strain (AID 167)
Details: S. cerevisiae bub3 mutant strain, at 50.0 µM, hits give high values
About 79,000 compounds went through this panel and 15% of them were active in at least one assay; those are over-represented in the sample as a whole.
Give just the number in %; leave the unit off.

> print(dat)
                                   compound  unit.descriptor  quantitative.readout
1   O=C1OC(=O)c2ccc([N+](=O)[O-])c3cccc1c23                %                  74.2
2         CCCCCCC[n+]1ccc(C(=O)c2ccccc2)cc1                %                  99.3
3  N#CC12CCCC(=O)N1c1ccccc1S2 (stereo unspecified)                %                  -6.8
4          Oc1ccccc1C(=NNc1ccccc1)c1ccccc1O                %                  95.8
5  COc1ccc(NC2Oc3cc4c(cc3C(c3cccc(OC)c3OC)C2C)OCO4)cc1 (stereo unspecified)                %                  65.3

For the compound Cc1cc(CC(O)(C(F)(F)F)C(F)(F)F)cc(CC(O)(C(F)(F)F)C(F)(F)F)n1 , what growth inhibition is on record? 99.2

Ok, now CCOc1c(N=Nc2ccccc2Cl)c(-c2ccccc2)nn1C(=S)S 78.5

Ok, now [O-]/[N+](O)=C\c1ccccn1 -8.4

Ok, now CC1(C)CC(=O)C(C(c2ccc3c(c2)OCO3)N2CCOCC2)C(=O)C1 (stereo unspecified) 98.8

Ok, now CCSc1c2ccccc2nc2c(OC)ccc(OC)c12 39.4

Ok, now CC12CCC3C(CCC4CC(O)CCC43C)C1CC=CO2 (stereo unspecified) 59.4

Ok, now N#CS/C=C/SC#N 99

Ok, now C=C1CCCCC1C(C(=O)O)(c1ccccc1)c1ccccc1 (stereo unspecified) 98.2

Ok, now Cc1ccccc1NC(=O)CSC(N)=O 87.3

Ok, now CCOC(=O)/C(C#N)=C/c1coc2cc(C)cc(C)c2c1=O 83
